Notes on pKi obtained with hCA I (Homo sapiens, UniProt P00915).
Sequence (P00915 whole entry): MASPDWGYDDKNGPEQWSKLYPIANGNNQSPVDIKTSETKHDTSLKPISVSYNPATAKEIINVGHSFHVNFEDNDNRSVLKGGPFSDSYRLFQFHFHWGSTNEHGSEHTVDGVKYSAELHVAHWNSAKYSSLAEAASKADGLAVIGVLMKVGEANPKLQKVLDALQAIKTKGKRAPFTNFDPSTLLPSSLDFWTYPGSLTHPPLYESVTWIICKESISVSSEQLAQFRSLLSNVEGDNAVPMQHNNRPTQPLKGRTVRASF
pKi: −log10 of the molar value.

compound: NS(=O)(=O)c1ccc(N2CC[C@@H](NC(=S)Nc3ccccc3F)C2)nc1 [21a]
system: hCA I (Homo sapiens, UniProt P00915)
pKi: 7.50

compound: NS(=O)(=O)c1ccc(N2CC[C@H](NC(=O)Nc3ccc4c(c3)OCCO4)C2)nc1 [15b]
system: hCA I (Homo sapiens, UniProt P00915)
pKi: 6.26

compound: NS(=O)(=O)c1ccc(N2CC[C@@H](NC(=O)Nc3ccccc3F)C2)nc1 [11a]
system: hCA I (Homo sapiens, UniProt P00915)
pKi: 7.43

compound: NS(=O)(=O)c1ccc(N2CC[C@@H](NC(=O)NS(=O)(=O)c3ccccc3Cl)C2)nc1 [25a]
system: hCA I (Homo sapiens, UniProt P00915)
pKi: 7.14

compound: NS(=O)(=O)c1ccc(NC(=S)N[C@@H]2CCN(c3ccccn3)C2)cc1 [35a]
system: hCA I (Homo sapiens, UniProt P00915)
pKi: 7.32

compound: NS(=O)(=O)c1ccc(NC(=O)N[C@@H]2CCN(c3cccc([N+](=O)[O-])n3)C2)cc1 [43a]
system: hCA I (Homo sapiens, UniProt P00915)
pKi: 7.17

compound: NS(=O)(=O)c1cccc(NC(=S)N[C@@H]2CCN(c3ccc(C(F)(F)F)cn3)C2)c1 [40a]
system: hCA I (Homo sapiens, UniProt P00915)
pKi: 6.31

compound: NS(=O)(=O)c1ccc(N2CC[C@@H](NC(=O)Nc3cc(C(F)(F)F)cc(C(F)(F)F)c3)C2)nc1 [16a]
system: hCA I (Homo sapiens, UniProt P00915)
pKi: 6.04

====

system: hCA I (Homo sapiens, UniProt P00915)
pKi: −log10 of the molar value.

compound: NS(=O)(=O)c1ccc(NC(=S)N[C@@H]2CCN(c3cccc([N+](=O)[O-])n3)C2)cc1 [37a]
pKi: 7.13
--
compound: NS(=O)(=O)c1ccc(N2CC[C@H](NC(=S)Nc3ccc(C4c5ccc(O)cc5Oc5cc(O)ccc54)c(C(=O)O)c3)C2)nc1 [17b]
pKi: 7.04
--
compound: NS(=O)(=O)c1cccc(NC(=O)N[C@H]2CCN(c3cccc([N+](=O)[O-])n3)C2)c1 [44b]
pKi: 7.06
--
compound: NS(=O)(=O)c1ccc(N2CC[C@H](NC(=S)Nc3ccccc3F)C2)nc1 [21b]
pKi: 7.16
--
compound: NS(=O)(=O)c1ccc(N2CC[C@H](NC(=O)Nc3ccc([N+](=O)[O-])cc3)C2)nc1 [19b]
pKi: 6.10
--
compound: NS(=O)(=O)c1ccc(N2CC[C@@H](NC(=S)Nc3ccc(C4c5ccc(O)cc5Oc5cc(O)ccc54)c(C(=O)O)c3)C2)nc1 [17a]
pKi: 7.09
--
compound: NS(=O)(=O)c1cccc(NC(=O)N[C@@H]2CCN(c3ccc(C(F)(F)F)cn3)C2)c1 [46a]
pKi: 6.70
--
compound: COc1ccccc1NC(=O)N[C@H]1CCN(c2ccc(S(N)(=O)=O)cn2)C1 [18b]
pKi: 6.32
--
compound: NS(=O)(=O)c1ccc(NC(=O)N[C@H]2CCN(c3cccc([N+](=O)[O-])n3)C2)cc1 [43b]
pKi: 7.12
--
compound: NS(=O)(=O)c1ccc(N2CC[C@@H](NC(=O)Nc3ccc([N+](=O)[O-])cc3)C2)nc1 [19a]
pKi: 6.60
--
compound: NS(=O)(=O)c1ccc(NC(=O)N[C@H]2CCN(c3ccc(C(F)(F)F)cn3)C2)cc1 [45b]
pKi: 7.16
--
compound: NS(=O)(=O)c1ccc(N2CC[C@H](NC(=O)Nc3cc(C(F)(F)F)cc(C(F)(F)F)c3)C2)nc1 [16b]
pKi: 6.20
--
compound: NS(=O)(=O)c1cccc(NC(=S)N[C@@H]2CCN(c3ccccn3)C2)c1 [36a]
pKi: 7.07
